- Test Name: NCI Yeast Anticancer Drug Screen. Data for the mec2-1 strain (AID 157)
- Setup Conditions: S. cerevisiae mec2-1 strain, at 1.2 µM, active compounds read high
Compounds without any hit were thinned out: in the full panel of roughly 79,000, 15% have a hit.
Quantity Name: growth inhibition (%)
Lab book: enter the figure in %, no units written.

Record excerpt, results attached:
Compound: CN[C@@H]1C[C@H]2O[C@@](C)([C@@H]1OC)n1c3ccccc3c3c4c(c5c6ccccc6n2c5c31)C(=O)N[C@@H]4O
growth inhibition (%): -53

Compound: Cc1cc(Cl)nc2nc(Cl)c(N)cc12
growth inhibition (%): -13

Compound: CCN(CC)N=Nc1c(C(N)=O)n[nH]c1C
growth inhibition (%): 2

Compound: O=C1OC2C(O)COC2(OCc2c[nH]c3ccccc23)C1O (centres undefined) (tested in a mixture with another compound)
growth inhibition (%): 0

Compound: Cc1cc(N=C2C=CC(=[N+](C)C)C=C2)c(N)cc1N
growth inhibition (%): -16

**Q:** Item S=c1[nH]c2c(Cl)c(Cl)c(Cl)c(Cl)c2[nH]1 has what recorded growth inhibition?
**A:** -28

**Q:** Next compound: NP1(Oc2ccc(F)cc2)=NP(N)(Oc2ccc(F)cc2)=NP(Oc2ccc(F)cc2)(Oc2ccc(F)cc2)=N1 (centres undefined)
**A:** 1

**Q:** Next compound: COc1cc(/C=C/c2sc3ccccc3[n+]2C)ccc1N(C)C
**A:** 0

**Q:** Next compound: Oc1ccccc1N=Cc1ccc(Cl)cc1
**A:** 17

Hey, just so you know, these numbers are from PubChem BioAssay (NCI).
